System: EGFR (human), P00533 [L858R]
assayMethodText: KINOMEscan competition binding
runParameters: compound 10.0 µM
measurementKind: kinase still bound, per cent of control

inputSmiles: O=C1NC(=O)/C(=C/c2c[nH]c(=O)c(-c3ccc(N4CCNCC4)nc3)c2)S1
result: 49%
//
inputSmiles: COc1cc(N2CCN(C)CC2)ccc1Nc1ncc2c(n1)Nc1ccccc1NC2=O
result: 28%
//
inputSmiles: COc1cc(N2CCC(O)CC2)ccc1Nc1ncc2c(n1)N(c1ccccc1)CCC(=O)N2C
result: 30%
//
inputSmiles: Nc1cccc(-c2cc(/C=C3\SC(=O)NC3=O)c[nH]c2=O)c1
result: 29%
//
inputSmiles: COc1cc(N2CCN(C)CC2)ccc1Nc1ncc2c(n1)N(C)c1sccc1C(=O)N2C
result: 63%
//
inputSmiles: COc1cc(N2CCN(C)CC2)ccc1Nc1ncc2c(n1)N(c1ccccc1)CCC(=O)N2
result: 31%
//
inputSmiles: COc1cc(N2CCC(C)(O)CC2)ccc1Nc1ncc2c(n1)N(C1CCCC1)CCC(=O)N2C
result: 17%
//
inputSmiles: COc1cc(N2CCN(CCO)CC2)ccc1Nc1ncc2c(n1)N(C1CCCC1)CCC(=O)N2C
result: 31%
//
inputSmiles: COc1cc(C(=O)NC2CCN(C)CC2)ccc1Nc1ncc2c(n1)N(CCc1ccccc1)CCC(=O)N2C
result: 22%
//
inputSmiles: O=C1NC(=O)/C(=C/c2ccc(-c3ccc(F)cc3O)o2)S1
result: 20%
//
inputSmiles: CN1CCN(c2ccc(C(=O)Nc3ncc4c(n3)N(C)c3ccccc3C(=O)N4C)cc2)CC1
result: 100%
//
inputSmiles: COc1cc(N2CCN(C)CC2)ccc1Nc1ncc2c(n1)N(C)c1ccccc1N(C)C2=O
result: 43%
//
inputSmiles: CN1C(=O)c2ccccc2N(C)c2nc(Nc3ccc(N4CCC(O)CC4)cc3)ncc21
result: 93%
//
inputSmiles: CN1C(=O)c2ccccc2N(C)c2nc(NS(=O)(=O)c3ccc(N)cc3)ncc21
result: 100%
//
inputSmiles: COc1cc(N2CCC(O)CC2)ccc1Nc1ncc2c(n1)N1CCc3cccc(c31)C(=O)N2C
result: 88%

----------
targetUnderTest: STK25 (human)
assayMethodText: KINOMEscan competition binding
runParameters: compound 10.0 µM
Label T when kinase still bound, per cent of control is strictly below 80%; at or above that, label F.

inputSmiles: COc1cc(N2CCN(C)CC2)ccc1Nc1ncc2c(n1)N(C)c1ccccc1N(C)C2=O
assignedLabel: F
//
inputSmiles: O=C1NC(=O)/C(=C/c2c[nH]c(=O)c(-c3ccc(N4CCNCC4)nc3)c2)S1
assignedLabel: T
//
inputSmiles: CSC1=NC(=O)/C(=C/c2ccc(-c3ccc(S(N)(=O)=O)cc3)o2)S1
assignedLabel: T
//
inputSmiles: COc1cc(N2CCC(O)CC2)ccc1Nc1ncc2c(n1)N1CCc3cccc(c31)C(=O)N2C
assignedLabel: F
//
inputSmiles: N=C1NC(=O)/C(=C/c2ccc(-c3cncc4ccccc34)o2)S1
assignedLabel: T
//
inputSmiles: COc1cc(N2CCN(C)CC2)ccc1Nc1ncc2c(n1)Nc1ccccc1NC2=O
assignedLabel: F
//
inputSmiles: NS(=O)(=O)c1ccc(-c2ccc(/C=C3\SC(=S)N(CC(=O)O)C3=O)o2)cc1
assignedLabel: T
//
inputSmiles: CN1C(=O)c2ccccc2N(C)c2nc(NS(=O)(=O)c3ccc(N)cc3)ncc21
assignedLabel: F
//
inputSmiles: CN1C(=O)c2ccccc2N(C)c2nc(Nc3ccc(N4CCC(O)CC4)cc3)ncc21
assignedLabel: F
//
inputSmiles: CN1CCN(c2ccc(C(=O)Nc3ncc4c(n3)N(C)c3ccccc3C(=O)N4C)cc2)CC1
assignedLabel: F
//
inputSmiles: O=C1NC(=S)S/C1=C\c1ccc(-c2cncc3ccccc23)o1
assignedLabel: T

----------
targetUnderTest: FGR (human)
assayMethodText: KINOMEscan competition binding
runParameters: compound 10.0 µM

inputSmiles: CN1C(=O)c2ccccc2N(C)c2nc(Nc3ccc(N4CCC(O)CC4)cc3)ncc21
kinase still bound, per cent of control: 6.6%
//
inputSmiles: COc1cc(N2CCN(C)CC2)ccc1Nc1ncc2c(n1)Nc1ccccc1NC2=O
kinase still bound, per cent of control: 73%
//
inputSmiles: COc1cc(N2CCC(O)CC2)ccc1Nc1ncc2c(n1)N1CCc3cccc(c31)C(=O)N2C
kinase still bound, per cent of control: 93%
//
inputSmiles: COc1cc(N2CCN(C)CC2)ccc1Nc1ncc2c(n1)N(C)c1ccccc1N(C)C2=O
kinase still bound, per cent of control: 100%
//
inputSmiles: CS(=O)(=O)Nc1ccc(-c2ncc(/C=C3\SC(=N)NC3=O)s2)cc1
kinase still bound, per cent of control: 26%
//
inputSmiles: O=C1NC(=O)/C(=C/c2c[nH]c(=O)c(-c3ccc(N4CCNCC4)nc3)c2)S1
kinase still bound, per cent of control: 84%
//
inputSmiles: COc1cc(N2CCN(C)CC2)ccc1Nc1ncc2c(n1)N(C)c1sccc1C(=O)N2C
kinase still bound, per cent of control: 98%
//
inputSmiles: CN1CCN(c2ccc(C(=O)Nc3ncc4c(n3)N(C)c3ccccc3C(=O)N4C)cc2)CC1
kinase still bound, per cent of control: 100%
//
inputSmiles: CN1C(=O)c2ccccc2N(C)c2nc(NS(=O)(=O)c3ccc(N)cc3)ncc21
kinase still bound, per cent of control: 100%

----------
Tested on: EGFR (human), P00533 [747-751 del / S ins]
assayMethodText: KINOMEscan competition binding
runParameters: compound 10.0 µM
Measured kinase still bound, per cent of control, listed per entry.

compound: COc1cc(N2CCN(C)CC2)ccc1Nc1ncc2c(n1)N(C)c1ccccc1N(C)C2=O
targetUnderTest: EGFR (human), P00533 [747-751 del / S ins]
endpointUnit: %
kinase still bound, per cent of control: 92

compound: COc1cc(N2CCC(O)CC2)ccc1Nc1ncc2c(n1)N(C1CCCC1)CCC(=O)N2C
targetUnderTest: EGFR (human), P00533 [747-751 del / S ins]
endpointUnit: %
kinase still bound, per cent of control: 29

compound: O=C1NC(=O)/C(=C/c2c[nH]c(=O)c(-c3ccc(N4CCNCC4)nc3)c2)S1
targetUnderTest: EGFR (human), P00533 [747-751 del / S ins]
endpointUnit: %
kinase still bound, per cent of control: 85

compound: CN1C(=O)c2ccccc2N(C)c2nc(Nc3ccc(N4CCC(O)CC4)cc3)ncc21
targetUnderTest: EGFR (human), P00533 [747-751 del / S ins]
endpointUnit: %
kinase still bound, per cent of control: 100

compound: COc1cc(N2CCC(N3CCN(C)CC3)CC2)ccc1Nc1ncc2c(n1)N(C1CCCC1)C(C)CC(=O)N2C (centres undefined)
targetUnderTest: EGFR (human), P00533 [747-751 del / S ins]
endpointUnit: %
kinase still bound, per cent of control: 34

compound: N=C1NC(=O)/C(=C/c2ccc(-c3ccc(F)cc3O)o2)S1
targetUnderTest: EGFR (human), P00533 [747-751 del / S ins]
endpointUnit: %
kinase still bound, per cent of control: 16

compound: COc1cc(N2CCN(CCO)CC2)ccc1Nc1ncc2c(n1)N(C1CCCC1)CCC(=O)N2C
targetUnderTest: EGFR (human), P00533 [747-751 del / S ins]
endpointUnit: %
kinase still bound, per cent of control: 20

compound: O=C1NC(=O)C(=Cc2ccc(-c3ccc(S(=O)(=O)N4CCNCC4)cc3)o2)C(=O)N1
targetUnderTest: EGFR (human), P00533 [747-751 del / S ins]
endpointUnit: %
kinase still bound, per cent of control: 17

compound: COc1cc(N2CCC(C)(O)CC2)ccc1Nc1ncc2c(n1)N(C1CCCC1)CCC(=O)N2C
targetUnderTest: EGFR (human), P00533 [747-751 del / S ins]
endpointUnit: %
kinase still bound, per cent of control: 6.2

----------
targetUnderTest: FLT4 (human) (UniProt P35916)
Sequence (P35916 whole entry, looked up): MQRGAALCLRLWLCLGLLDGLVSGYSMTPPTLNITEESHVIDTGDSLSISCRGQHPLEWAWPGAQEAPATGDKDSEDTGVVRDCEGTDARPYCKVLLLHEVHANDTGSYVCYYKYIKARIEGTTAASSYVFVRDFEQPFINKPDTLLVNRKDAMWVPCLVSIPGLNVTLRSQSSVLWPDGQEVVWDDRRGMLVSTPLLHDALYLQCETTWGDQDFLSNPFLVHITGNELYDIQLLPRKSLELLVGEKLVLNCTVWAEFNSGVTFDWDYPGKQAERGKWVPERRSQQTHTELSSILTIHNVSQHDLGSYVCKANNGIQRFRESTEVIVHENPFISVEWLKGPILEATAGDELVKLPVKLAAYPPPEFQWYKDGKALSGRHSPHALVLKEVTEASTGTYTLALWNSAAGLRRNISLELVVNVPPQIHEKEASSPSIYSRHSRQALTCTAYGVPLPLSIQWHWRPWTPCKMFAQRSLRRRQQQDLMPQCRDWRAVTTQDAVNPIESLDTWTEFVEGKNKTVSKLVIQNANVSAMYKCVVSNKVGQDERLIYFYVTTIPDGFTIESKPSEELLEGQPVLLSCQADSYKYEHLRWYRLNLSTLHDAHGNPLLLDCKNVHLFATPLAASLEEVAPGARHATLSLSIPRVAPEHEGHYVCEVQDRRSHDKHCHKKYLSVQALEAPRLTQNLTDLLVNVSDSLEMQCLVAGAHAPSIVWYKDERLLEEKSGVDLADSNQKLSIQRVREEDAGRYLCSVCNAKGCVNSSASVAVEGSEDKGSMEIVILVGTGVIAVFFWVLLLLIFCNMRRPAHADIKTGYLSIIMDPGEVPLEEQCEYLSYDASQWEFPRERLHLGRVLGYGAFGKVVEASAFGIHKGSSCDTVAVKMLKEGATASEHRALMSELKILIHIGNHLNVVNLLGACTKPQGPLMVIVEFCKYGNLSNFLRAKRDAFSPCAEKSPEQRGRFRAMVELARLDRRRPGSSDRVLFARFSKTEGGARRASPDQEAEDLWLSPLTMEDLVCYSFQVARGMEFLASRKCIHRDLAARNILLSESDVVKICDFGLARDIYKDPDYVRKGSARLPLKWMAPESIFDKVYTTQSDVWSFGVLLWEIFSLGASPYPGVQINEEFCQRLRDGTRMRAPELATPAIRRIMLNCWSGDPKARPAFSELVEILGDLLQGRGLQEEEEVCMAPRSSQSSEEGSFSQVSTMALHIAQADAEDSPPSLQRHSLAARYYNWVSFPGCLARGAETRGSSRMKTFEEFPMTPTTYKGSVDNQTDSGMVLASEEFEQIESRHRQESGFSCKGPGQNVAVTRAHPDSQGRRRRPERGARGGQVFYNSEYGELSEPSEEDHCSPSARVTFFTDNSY
assayMethodText: KINOMEscan competition binding
runParameters: compound 10.0 µM

inputSmiles: O=C1NC(=S)S/C1=C\c1ccc(-c2cncc3ccccc23)o1
endpointUnit: %
kinase still bound, per cent of control: 28
//
inputSmiles: CN1C(=O)c2ccccc2N(C)c2nc(NS(=O)(=O)c3ccc(N)cc3)ncc21
endpointUnit: %
kinase still bound, per cent of control: 100
//
inputSmiles: O=C1NC(=S)S/C1=C\c1ccc(-c2cccc3ccccc23)o1
endpointUnit: %
kinase still bound, per cent of control: 25
//
inputSmiles: COc1cc(C(=O)NC2CCN(C)CC2)ccc1Nc1ncc2c(n1)N(C1CCCC1)CCC(=O)N2C(C)C
endpointUnit: %
kinase still bound, per cent of control: 0
//
inputSmiles: CN1CCN(c2ccc(C(=O)Nc3ncc4c(n3)N(C)c3ccccc3C(=O)N4C)cc2)CC1
endpointUnit: %
kinase still bound, per cent of control: 100

----------
Measured kinase still bound, per cent of control, listed per entry.
targetUnderTest: INSRR (human)
assayMethodText: KINOMEscan competition binding
runParameters: compound 10.0 µM

compound: COc1cc(N2CCN(C)CC2)ccc1Nc1ncc2c(n1)Nc1ccccc1NC2=O
kinase still bound, per cent of control / %: 41

compound: COc1cc(C(=O)NC2CCN(C)CC2)ccc1Nc1ncc2c(n1)N(C1CCC(O)CC1)CCC(=O)N2C (centres undefined)
kinase still bound, per cent of control / %: 23

compound: COc1cc(N2CCN(C)CC2)ccc1Nc1ncc2c(n1)N(C1CCCC1)C(C)CC(=O)N2C (centres undefined)
kinase still bound, per cent of control / %: 33

compound: CN1CCN(c2ccc(C(=O)Nc3ncc4c(n3)N(C)c3ccccc3C(=O)N4C)cc2)CC1
kinase still bound, per cent of control / %: 100

compound: COc1cc(N2CCN(CCO)CC2)ccc1Nc1ncc2c(n1)N(C1CCCC1)CCC(=O)N2C
kinase still bound, per cent of control / %: 32

compound: COc1cc(N2CCC(O)CC2)ccc1Nc1ncc2c(n1)N1CCc3cccc(c31)C(=O)N2C
kinase still bound, per cent of control / %: 78

compound: COc1cc(N2CCC(N3CCN(C)CC3)CC2)ccc1Nc1ncc2c(n1)N(C1CCCC1)C(C)CC(=O)N2C (centres undefined)
kinase still bound, per cent of control / %: 33

compound: COc1cc(C(=O)NC2CCN(C)CC2)ccc1Nc1ncc2c(n1)N(C1CCCC1)CCC(=O)N2C
kinase still bound, per cent of control / %: 19

compound: COc1cc(N2CCN(C)CC2)ccc1Nc1ncc2c(n1)N(C)c1ccccc1N(C)C2=O
kinase still bound, per cent of control / %: 55

Data provenance: the kinase profiling compilation of Christmann-Franck et al. (2016)
